The reported numbers originate from the COVID Moonshot data (paper PMC11187573).

- target: SARS-CoV-2 Main Protease (SARS-CoV-2) (UniProt P0DTD1)
- recorded.conditions: 50.0 µM
experimental.endpoint: inhibition (%)
Form entry: value (%) — number only.

# input Need inhibition of "N#Cc1ccccc1S(=O)(=O)N1CCN(C(=O)c2cc(=O)[nH]c3cc(F)ccc23)CC1" , thanks.
# output 0

# input Also "CC(=O)N1CCN(S(=O)(=O)C2=CC[SH]=C2)CC1" , if possible.
# output 3.62

# input Also "O=C(Cc1cccc(Cl)c1)Nn1cnc2ccccc21" , if possible.
# output 45.3

# input Also Cc1nnc(NC(=O)C2COc3ccc(Cl)cc32)n1C1CC1 (stereo unspecified) , if possible.
# output 0

# input Also CN1CCN(C(=O)Cc2c[nH]c3ncccc23)CC1C(=O)NCCc1c[nH]c2ccc(F)cc12 (stereo unspecified) , if possible.
# output -15

# input Also "Cc1cccc(C)c1NC(=O)CN1C(=O)C(=O)c2ccccc21" , if possible.
# output 0

# input Also "O=C(c1cc(=O)[nH]c2ccccc12)N1CCN(S(=O)(=O)c2ccccc2)CC1" , if possible.
# output 3.07

# input Also "N#Cc1ccccc1S(=O)(=O)N1CCN(C(=O)c2cc(=O)[nH]c3ccc(F)cc23)CC1" , if possible.
# output 29.9

# input Also "O=C(CC1(c2ccccc2)CCCC1)Nc1cccnc1" , if possible.
# output 13.9

# input Also Cc1ncc2c(n1)CCC(NC(=O)NCc1cccc(N3C(=O)NC4(CCCC4)C3=O)c1)C2 (stereo unspecified) , if possible.
# output 0

# input Also "O=C1C(=O)N(Cc2ccccc2)c2cc(Br)ccc21" , if possible.
# output 0

* * *

- target: SARS-CoV-2 Main Protease (SARS-CoV-2) (UniProt P0DTD1)
- recorded.conditions: 20.0 µM
experimental.endpoint: inhibition

# input Need inhibition of "N#Cc1cccc(NC(=O)Nc2cccnc2)c1" , thanks.
# output 0%

# input Also C=CC(=O)N(c1ccc(C(C)(C)C)cc1)C(C(=O)Nc1ccc(OC)nc1)c1cccnc1 (stereo unspecified) , if possible.
# output 0%

# input Also C=CC(=O)N(c1ccc(C(C)(C)C)cc1)C(C(=O)Nc1c(C)cccc1CC)c1cccnc1 (stereo unspecified) , if possible.
# output 0%

# input Also C=CC(=O)N(c1ccc(C(C)OC)cc1)C(C(=O)Nc1ccc(Cl)cc1)c1cccnc1 (stereo unspecified) , if possible.
# output 0%

# input Also C=CC(=O)N(c1ccc2ncsc2c1)C(C(=O)Nc1c(C)cccc1CC)c1cccnc1 (stereo unspecified) , if possible.
# output 0%

# input Also C=CC(=O)N(c1ccc(C(C)OC)cc1)C(C(=O)NC(C)(C)C)c1cccnc1 (stereo unspecified) , if possible.
# output 0%

# input Also Cc1cccc(C)c1OCC(=O)N[C@@H](Cc1ccccc1)[C@@H](O)C[C@H](Cc1ccccc1)NC(=O)[C@H](C(C)C)N1CCCNC1=O (stereo in doubt) , if possible.
# output 0%

# input Also "O=C(NCc1noc2ccccc12)c1ccccc1OCC1CC1" , if possible.
# output 0%

# input Also C=CC(=O)N(c1ccc(C(C)(C)C)cc1)C(C(=O)NC(C)(C)C)c1cccnc1C (stereo unspecified) , if possible.
# output 0%

# input Also C=CC(=O)N(C(C(=O)NC(C)(C)C)c1cccnc1)[C@@H]1C[C@@H]1c1ccccc1 (stereo in doubt) , if possible.
# output 0%

# input Also "C=CC(=O)N1CCN(Cc2c[nH]c3ccc(C#N)cc23)CC1" , if possible.
# output 0%

# input Also C=CC(=O)N(c1ccc(C(C)OC)cc1)C(C(=O)Nc1c(C)cccc1CC)c1cccnc1 (stereo unspecified) , if possible.
# output 0%

# input Also "Cc1nnc(CC(=O)Nc2cccnc2)s1" , if possible.
# output -1.82%

# input Also "O=C(CCl)N1CCN(Cc2cc(O)cc(Cl)c2)CC1" , if possible.
# output 92.7%

# input Also C=CC(=O)N(c1ccc(C(C)(C)C)cc1)C(C(=O)Nc1ccc2c(c1)OCCO2)c1cccnc1 (stereo unspecified) , if possible.
# output 7.68%

# input Also "NS(=O)(=O)c1ccc(N2CCC(CO)CC2)cc1" , if possible.
# output -1.13%

# input Also "O=C(Nc1cccnc1)Nc1cncc(Cl)c1" , if possible.
# output 0%

# input Also C=CC(=O)N(c1ccc2ncsc2c1)C(C(=O)Nc1ccc(OC)cc1C)c1cccnc1 (stereo unspecified) , if possible.
# output 0%

# input Also "O=C(CCl)N1CCC(C(=O)N2CCCCC2)CC1" , if possible.
# output 0.506%

# input Also CC(NC(=O)C(Cc1ccccc1)NC(=O)c1ccco1)c1ncco1 (stereo unspecified) , if possible.
# output 0%

# input Also C=CC(=O)N(c1ccc(C2CCOC2)cc1)C(C(=O)NC(C)(C)C)c1cccnc1 (stereo unspecified) , if possible.
# output 0%

* * *

- target: SARS-CoV-2 Main Protease (SARS-CoV-2)
- recorded.conditions: 50.0 µM
experimental.endpoint: inhibition (%)
Form entry: value (%) — number only.

# input Request - read-out inhibition | tested on SARS-CoV-2 Main Protease (SARS-CoV-2) | compound "O=C(c1cc(=O)[nH]c2ccccc12)N1CCN(c2ccccc2)CC1"
# output 54.1

# input Also O=C(c1cc2sccc2s1)N1CCOC(CN2CCOCC2)C1 (stereo unspecified) , if possible.
# output 7.85

# input Also Cc1ccncc1NC(=O)CC1CCCNC1 (stereo unspecified) , if possible.
# output 16.7

# input Also C=CC(=O)N(c1ccc(C(C)(C)C)cc1)C(C(=O)NCCc1cccc(F)c1)c1cncc(O)c1 (stereo unspecified) , if possible.
# output 23.5

# input Also "O=C(NCCNc1ccccc1)c1cc(=O)[nH]c2ccccc12" , if possible.
# output 61.6

# input Also O=C(CCl)N1CCCC(N(CC2CCCCC2)C2CCC(O)CC2)C1 (stereo unspecified) , if possible.
# output 7.36

# input Also "C=CC(=O)N1CCN(Cc2cccc3ccccc23)CC1" , if possible.
# output 3.35

# input Also "Cc1ccncc1NC(=O)CCc1ccccn1" , if possible.
# output -28.6

# input Also "COc1cc(OC)cc(Oc2cccc(CNC(=O)Cn3nnc4ccccc43)c2)c1" , if possible.
# output 0.116

# input Also "Cc1ccc(NC(=O)Nc2cccnc2)s1" , if possible.
# output 11.3

# input Also C=CC(=O)N(c1ccc(C(C)(C)C)cc1)C(C(=O)Nc1ccc(OC)cc1C)c1cccnc1 (stereo unspecified) , if possible.
# output 22.4

* * *

- target: SARS-CoV-2 Main Protease (SARS-CoV-2)
- recorded.conditions: 50.0 µM
experimental.endpoint: inhibition (%)
Form entry: value (%) — number only.

# input Need inhibition of "O=C(NCc1ccno1)c1ccccc1Oc1ccc(Cl)cc1Cl" , thanks.
# output -12.4

# input Also C=CC(=O)N(c1ccc(C(C)(C)C)cc1)C(C(=O)Nc1cccc(F)c1C)c1cccnc1 (stereo not drawn) , if possible.
# output -14.8

# input Also "O=C1C(=O)N(CCCOc2ccc(Cl)cc2)c2ccccc21" , if possible.
# output 3.47

# input Also "Cc1ccc(NC(=O)Nc2cn(CC(C)C)c(=O)c3ccccc23)c(Br)c1" , if possible.
# output 9.66

# input Also Cc1ccccc1NC(=O)CC1SC(=O)N(c2ccccc2)C1=O (stereo not drawn) , if possible.
# output 94.9

# input Also O=C(Cc1cncnc1)Nc1cc(F)cc(OC2CC(=O)N2)c1 (stereo not drawn) , if possible.
# output 87.8

# input Also CN(CC1COc2ccccc2O1)C(=O)c1cc(=O)[nH]c2cc(F)ccc12 (stereo not drawn) , if possible.
# output 15.3

# input Also O=C(Nc1cccc(C(=O)N2CCSCC2)c1)C(F)Cl (stereo not drawn) , if possible.
# output -16.9

# input Also "Cc1ccncc1NC(=O)CCNC(=O)c1ccccc1F" , if possible.
# output -15.8

# input Also "Cn1cc(S(N)(=O)=O)cc1CC(=O)Nc1cccc(C(=O)NCc2ccccn2)c1" , if possible.
# output -0.596

# input Also "COc1ccccc1OCCNC(=O)c1cc(=O)[nH]c2ccccc12" , if possible.
# output 92.7

# input Also C=CC(=O)N(c1ccc(C(C)(C)C)cc1)C(C(=O)NC(C)(C)C)c1cncc(OCC)c1 (stereo not drawn) , if possible.
# output 2.59

# input Also "O=C(Cc1ccc2[nH]c(=O)[nH]c2c1)NC1(CNC(=O)c2cnc[nH]2)CC1" , if possible.
# output 3.02

# input Also "Cc1cc(Br)cc2c1N(CCBr)C(=O)C2=O" , if possible.
# output -4.22

# input Also "O=C(c1cc(=O)[nH]c2ccccc12)N1CCN(Cc2ccccc2)CC1" , if possible.
# output 87.8

# input Also "O=C(Cc1c[nH]c2ncccc12)NCc1ccc(Cl)cc1" , if possible.
# output 3.45

# input Also "CNC(=O)OC1CCN(C(=O)c2ccncc2)CC1" , if possible.
# output -25.3

# input Also "COc1ccnc(NC(=O)Cc2ccc3ccccc3c2)c1" , if possible.
# output 6.09

# input Also C=CC(=O)NCC(=O)N(Cc1ccccc1)C[C@H](O)c1ccccc1 (stereo in doubt) , if possible.
# output 0.986

# input Also C=CC(=O)N(c1ccc(C(C)(C)C)cc1)C(C(=O)NCCCOC)c1cccnc1 (stereo not drawn) , if possible.
# output 19.4

# input Also "O=C(Nc1cccnc1)N(CCN1CCOCC1)c1cccc(Cl)c1" , if possible.
# output 49.6

# input Also "O=C(CC(=O)N1CCOCC1)NC1CCCCC1" , if possible.
# output 6.01

# input Also "O=C(CCl)N1CCN(Cc2cc(Cl)cc(Cl)c2)CC1" , if possible.
# output 69.1
